This collection of values is drawn from PubChem BioAssay (NCI).

tested on: SF-268 CNS; assay: NCI tumour cell line growth inhibition, 48 h
Measured TGI, listed per entry.

Illustrative cases are given below, each with its answer.
[
  {
    "molecule": "Nc1ccc2c(c1)C1Oc3ccccc3CC1CO2 (configuration not stated)",
    "TGI": "> 100 µM"
  },
  {
    "molecule": "Cc1ncc(C(=O)Nc2ccc(CN3CCN(C)CC3)c(C(F)(F)F)c2)cc1C#Cc1c(N)ncc2ccc(C#N)cc12",
    "TGI": "9.7 µM"
  },
  {
    "molecule": "COC(=O)C1=C(O)C(O)=C(C(=O)OC)CC1",
    "TGI": "> 100 µM"
  },
  {
    "molecule": "CC(=O)OCC1OC(n2cc(F)c(=O)[nH]c2=O)C(OC(C)=O)C1OC(C)=O (configuration not stated)",
    "TGI": "> 100 µM"
  },
  {
    "molecule": "COc1ccc(CN(O)C2C(CO)OC(n3cc(I)c(=O)[nH]c3=O)C2O)cc1 (configuration not stated)",
    "TGI": "> 100 µM"
  },
  {
    "molecule": "CC(=O)NC1(C)CCC(C(C)(C)NC(C)=O)CC1 (configuration not stated)",
    "TGI": "> 100 µM"
  }
]

// switching to the query molecule
Given COC12C=C/C(=C(/C(=O)OCc3ccncn3)C(=O)CCCCCCCCC3(OC)C=C/C(=C(/C(=O)OCc4ccncn4)C(=O)CCCCCCCC1)O3)O2 , state its recorded TGI.
1.92 µM

---

test system: OVCAR-4 ovarian; assay: NCI tumour cell line growth inhibition, 48 h
parameter_measured: TGI

[
  {
    "compound": "Cc1cn(C2CC(O)C(CO)C2C)c(=O)[nH]c1=O (configuration not stated)",
    "parameter_measured": "TGI",
    "measured": "> 100 µM"
  }
]

I have this compound here, C/C(O)=C/c1nc2ccccc2nc1/C=C(/C)O , and I need its recorded TGI.
48.5 µM

GET /values?readout=TGI&item= COC1CCC(=C2C(=O)OC(C)(C)OC2=O)N1 (configuration not stated)
> 100 µM

Need TGI, item CCc1ccc(Cc2ccc(CC)c(NC(=O)C(=O)Cc3nc4ccccc4nc3C)c2CC)c(CC)c1NC(=O)C(=O)Cc1nc2ccccc2nc1C
> 100 µM

# get_value(readout='TGI', item= O=c1c(Cl)nsnc1Cl )
49.4 µM

Report TGI for CC(C)NC(=O)OCc1nnn2c1C(OC(=O)NC(C)C)CC2 (configuration not stated) please.
> 100 µM

---

system: OVCAR-5 ovarian; test: NCI tumour cell line growth inhibition, 48 h
# key: entry, value: TGI

Example entries begin here.
[
  {
    "compound": "COc1ccc2oc(S(=O)(=O)N3CC(CCl)c4ccc([N+](=O)[O-])cc43)cc2c1 (stereo not drawn)",
    "TGI": "> 100 µM"
  },
  {
    "compound": "CC(=O)OCC1OC(n2cc(F)c(=O)[nH]c2=O)C(OC(C)=O)C1OC(C)=O (stereo not drawn)",
    "TGI": "> 100 µM"
  }
]

// moving on: another record for TGI
Returns the measured TGI for the input compound. Input: CN1CCC(O)C(CNC23CC4CC(CC(C4)C2)C3)C1 (stereo not drawn)
> 100 µM

---

In this section we review reported TGI values for a set of compounds.
test system: 786-0 renal; test: NCI tumour cell line growth inhibition, 48 h

[
  {
    "compound": "FC(F)(F)c1ccc2nc(-c3nc(-c4ccccc4)n4ccccc34)[nH]c2c1",
    "TGI": "3.56 µM"
  },
  {
    "compound": "O=S(=O)(c1cc(Cl)ccc1Cl)N1CCN(S(=O)(=O)c2cc(Cl)ccc2Cl)CC1",
    "TGI": "> 100 µM"
  },
  {
    "compound": "O=C(Nc1nc2ncn(CCOC(=O)c3ccccc3)c2c(=O)[nH]1)c1ccccc1",
    "TGI": "> 100 µM"
  },
  {
    "compound": "O=C(NCC1Nc2ccncc2S(=O)(=O)N1)c1ccc(Br)cc1 (centres undefined)",
    "TGI": "> 100 µM"
  },
  {
    "compound": "c1ccc([CH2][Sn]([CH2]c2ccccc2)([S]c2cccc3cccnc23)[S]c2cccc3cccnc23)cc1",
    "TGI": "1.05 µM"
  }
]

What value of measured TGI is listed for O=P(O)(O)OC1C(OP(=O)(O)O)C(OP(=O)(O)O)C(OP(=O)(O)O)C(OP(=O)(O)O)C1OP(=O)(O)O (centres undefined) ?
> 2000 µM

I would be grateful if you could share the reported TGI for COc1ccc(C(=O)O/N=C2\CCCC\C2=C/c2ccccc2)cc1 .
> 100 µM

Which value of TGI has been reported for CCOC(=O)c1ccc(-c2cc(C)[nH]n2)[nH]1 in the records?
> 100 µM

Fill blank: measured TGI of the compound COC1CC(OC2OC(CO)C(O)C(O)C2O)/C(=C\C#N)C(O)C1OC (centres undefined) is ____.
> 100 µM

Please report the recorded TGI for [N-]=[N+]=Nc1ccc(S(=O)(=O)Oc2cc(OS(=O)(=O)c3ccc(N=[N+]=[N-])cc3)cc(OS(=O)(=O)c3ccc(N=[N+]=[N-])cc3)c2)cc1 .
> 100 µM

Item O=C(CCCCCCc1nc2ccc(Br)cc2[nH]1)NO has what recorded TGI?
10.7 µM

Give the measured TGI of Cc1c2c(n3c(nc4ccccc43)c1C#N)SCC2 .
> 10 µM

---

tested on: NCI-H522 lung; assay: NCI tumour cell line growth inhibition, 48 h
parameter_measured: TGI

For orientation, consider the following solved cases.
[
  {
    "compound": "Cc1ccc(S(=O)(=O)NCCCN(CCCNS(=O)(=O)c2ccc(C)cc2)S(=O)(=O)c2ccc(C)cc2)cc1",
    "assayed_system": "NCI-H522 lung",
    "TGI": "> 100 µM"
  },
  {
    "compound": "CC1CN=C(Nc2cccc(C(F)(F)F)c2)S1 (centres undefined)",
    "assayed_system": "NCI-H522 lung",
    "TGI": "> 100 µM"
  }
]

// map COC(c1ccsc1)C(C#N)(C#N)N=Cc1ccsc1 (centres undefined) to recorded TGI (system: NCI-H522 lung)
21.3 µM

Item: CC(C)(C)c1cc(C(O)(C(=O)O)C(=O)O)cc(C(C)(C)C)c1O Test system: NCI-H522 lung Read-out: TGI Value: ?
> 100 µM

Hi! What's the reported TGI for CC(C)Oc1cc(OCC(=O)O)cc(C(=O)N(CCC(N)=O)C(=O)Nc2ccc(C(=O)O)cc2OC(C)C)c1 on NCI-H522 lung?
> 100 µM

Given the entry N#Cc1c(N)nn(C(=O)c2ccc(NC(=O)c3ccccn3)cc2)c1-c1ccc(Cl)cc1 , what TGI was observed with NCI-H522 lung?
> 100 µM

Observed TGI on NCI-H522 lung for CC1=NN(c2cccc(Cl)c2)C2(C1)C(Cl)C(=O)N2c1nc2ccccc2s1 (centres undefined) , please.
56.6 µM

Tell me reported TGI for CC/C=C/[C@@H]1C=C[C@@H]2CCC[C@H]2[C@@H]1CC[C@H](O)[C@H](C)N , tested with NCI-H522 lung.
3.99 µM

---

In this section, each of the compounds is paired with its reported TGI.
system: SW-620 colon; test: NCI tumour cell line growth inhibition, 48 h

[
  {
    "compound": "O=S(=O)(c1ccccc1)n1c(C(O)c2ccncc2)cc2ccccc21 (stereo not given)",
    "assayed_system": "SW-620 colon",
    "measured": "> 100 µM"
  }
]

Consider the compound CC[C@]1(O)C[C@@H]2CN(Cc3c([nH]c4ccccc34)[C@@](C(=O)OC)(c3cc4c(cc3OC)N(C)[C@H]3[C@@](O)(C(=O)OC)[C@H](OC(C)=O)[C@]5(CC)[C@@H]6C[C@@H]6CN6CC[C@]43[C@@H]65)C2)C1 and give its measured TGI.
> 4.38 µM

For the compound shown here, Cc1ccc(S(=O)(=O)NC(=O)NC(Cc2c[nH]c3ccccc23)C(=O)O)cc1 (stereo not given) , give the reported TGI.
> 100 µM

Returns the measured TGI for the input compound. Input: COc1ccc(CN2CCc3c(Cl)nc(N)nc3C2=O)c(OC)c1
28.1 µM

---

The entries below come with measured TGI values attached.
system: HOP-62 NSCLC; test: NCI tumour cell line growth inhibition, 48 h

[
  {
    "compound": "CCNC(=S)N/N=C/c1cc(OC)ccc1O",
    "TGI": "> 100 µM"
  }
]

# query: TGI of entry O=C(Nc1ccc(Cl)c(Cl)c1)Nc1ccc(Cl)c([N+](=O)[O-])c1
6.04 µM

Param item = C=CCNC1=C2C[C@@H](C)C[C@@H](OC)C(OC(=O)CCCN(C)C)[C@H](C)/C=C(\C)[C@@H](OC(N)=O)[C@H](OC)/C=C\C=C(/C)C(=O)NC(=CC1=O)C2=O (stereo partly drawn) ; retrieve measured TGI.
21.5 µM
